- System: SK-MEL-2
- assay: NCI tumour cell line growth inhibition, 48 h
Calls of active or inactive are those of the source. Cut-off read from the data, not from the text of the source: active = GI50 up to about 1.1 µM and inactive = higher.
Recorded GI50, one value per entry.

Study these solved cases before continuing.
INSERT INTO measurements (compound, val) VALUES
  ('O=C(CCCl)NN=C1NCCN1', '> 100 µM (inactive)'),
  ('CC(N)C(=O)OCN1C(=O)C2C3C=CC(C2C1=O)C1C2C(=O)N(COC(=O)C(C)N)C(=O)C2C31 (centres undefined)', '20.6 µM (inactive)'),
  ('CC(=O)Nc1ccc(N2C(=O)/C(=C\c3cccc(Oc4ccccc4)c3)SC2c2ccccc2)cc1 (centres undefined)', '30.4 µM (inactive)'),
  ('Cc1cccc(/C=N/NC(=S)NCCc2ccccn2)n1', '31.2 µM (inactive)'),
  ('COc1cccc(OCC(=N/NC(=O)c2ccncc2)/N=C/c2ccncc2)c1', '> 100 µM (inactive)'),
  ('COC(=O)[C@@H](Cc1ccccc1)N1O[C@]12CCCC[C@@H]2NC(=O)OC(C)(C)C (some centres undefined)', '20.4 µM (inactive)'),
  ('COc1cc(C2c3cc4c(cc3OC(NN)C2C)OCO4)cc(OC)c1OC (centres undefined)', '0.647 µM (active)'),
  ('Cc1ccc2c(c1)NC(=O)C(N=[N+]=[N-])(c1ccccc1)C2=O (centres undefined)', '17.9 µM (inactive)');

Turning now to a further record.
query: Give the reported GI50 for this compound. CC(C)(Oc1ccc(C(=O)c2ccc(Cl)cc2)cc1Cl)C(=O)N1CCN(c2ccccc2)CC1
result: > 100 µM (inactive)

----------
- System: HL-60
- assay: NCI tumour cell line growth inhibition, 48 h
Calls of active or inactive are those of the source. Cut-off read from the data, not from the text of the source: active = GI50 up to about 1.1 µM and inactive = higher.
Pick one: active, inactive

INSERT INTO results (compound, class_assignment) VALUES
  ('COC(=O)c1ccccc1C1CN=NC12Cc1c(C)ccc(C)c1C2=O (centres undefined)', 'inactive'),
  ('O=C(c1c(F)c(F)c(F)c(F)c1F)c1c(F)c(F)c(F)c(F)c1F', 'active'),
  ('O=C(c1ccccc1)c1ccc(N2C(=O)/C(=C/c3cccc(Oc4ccccc4)c3)N=C2c2ccccc2)c(N2C(=O)/C(=C/c3cccc(Oc4ccccc4)c3)N=C2c2ccccc2)c1', 'inactive');

Shift focus to the following entry.
query: Query: recorded result category for COC1(OC)CCC2C1C1CCC(OC)(OC)C21 (centres undefined) in this test
result: inactive

----------
- System: SF-539
- assay: NCI tumour cell line growth inhibition, 48 h
The source made the active and inactive calls. No stated cut-off is given here; in the data, active = GI50 up to about 1.1 µM and inactive = higher.
Pick one: active, inactive

query: Query: recorded result category for Nc1nc(O)c2nc(CNc3ccc(C(=O)NC(CCC(=O)O)C(=O)O)cc3)cnc2n1 (centres undefined) in this test
result: inactive

query: Query: recorded result category for COc1cc2c(c(O)c1OC)CC1CCC(=O)N1C2c1cccc2ccccc12 (centres undefined) in this test
result: inactive

----------
- Test system: TK-10
- assay: NCI tumour cell line growth inhibition, 48 h
Calls of active or inactive are those of the source. Cut-off read from the data, not from the text of the source: active = GI50 up to about 1.1 µM and inactive = higher.
Pick one: active, inactive

INSERT INTO assay_data (molecule, class_assignment) VALUES
  ('COc1cccc(N2N=C3c4ccccc4-n4c(nc5ccccc54)C3C2N)c1 (stereo unspecified)', 'inactive'),
  ('COc1cc2cc(C(=O)N3CC(CCl)c4ccc(O)cc43)[nH]c2c(OC)c1OC (stereo unspecified)', 'active'),
  ('CC(C)(C)C1=CC(=NNC(=S)NCc2ccccc2)C=C(C(C)(C)C)C1=O', 'inactive'),
  ('O=C1c2cccc3cccc(c23)C(=O)N1CCCN1CCN(CCCN2C(=O)c3cccc4cccc(c34)C2=O)CC1', 'inactive'),
  ('CC1CC2C3CCC4=CC(=O)C=CC4(C)C3(F)C(O)CC2(C)C1(O)C(=O)CO.Cc1cc(NS(=O)(=O)c2ccc(/N=N\c3cc(/N=N/c4ccc(S(=O)(=O)Nc5cc(C)nc(C)n5)cc4)c(OC(=O)C(Cl)Cl)c4cccc(NC(=O)C(Cl)Cl)c34)cc2)nc(C)n1', 'inactive'),
  ('CC(C)=NOC(=O)Nc1cccc2c1OCO2', 'inactive');

query: Query: recorded result category for COC1=CC(=O)C2C(C1=O)[C@@H]1c3ccccc3C[C@H]21 (stereo partly specified) in this test
result: inactive
